tested on: Acinetobacter baumannii; test: Antibacterial activity against Acinetobacter baumannii ATCC 19606 (CO-ADD:GN_034); MIC in CAMBH media using NBS plates, by Resazurin F(560/590); type: functional; conditions: Concentration 20 uM, ASSAY_TEST Inhibition of Bacterial Growth, detection method Resazurin, Fluorescence (ex560/em590), MEDIA CAMHB, plate type 384well, CORNING #3640, time 18 hr
attribute-measured: Inhibition (%)
One number for each entry, in %.

Recorded Inhibition, per entry:
>  <molecule>
CC(C)NC(=O)Nc1cccc(Cl)c1

>  <measured-result>
7.15

$$$$
>  <molecule>
O=c1nc(Oc2ccccc2)nc2ncccn12

>  <measured-result>
13.4

$$$$
>  <molecule>
Clc1nc2nc3n(c2nc1Cl)CCC3

>  <measured-result>
6.51

$$$$
>  <molecule>
O=C(Nc1ccc(Nc2ccccc2)cc1)Nc1ccccc1Cl

>  <measured-result>
1.03

$$$$
>  <molecule>
Cc1nc2ccccc2nc1N1CCCC1

>  <measured-result>
-3.73

$$$$
>  <molecule>
CCOC(CNCc1cc(C)c2[nH]c3ccccc3c2c1C)OCC

>  <measured-result>
-1.22

$$$$
>  <molecule>
c1ccc2cc(OCCOCCOc3ccc4ccccc4c3)ccc2c1

>  <measured-result>
0.36

$$$$
>  <molecule>
Oc1nc2ccccc2n1C1=CCNCC1

>  <measured-result>
-15.97

$$$$
>  <molecule>
N#Cc1nnn(-c2ccc(Cl)cc2)c1N

>  <measured-result>
3.74

$$$$
>  <molecule>
COc1ccc(NC(=O)c2cc3ccc4c5ccccc5[nH]c4c3cc2O)cc1

>  <measured-result>
5.56

$$$$

Would you be so kind as to report Inhibition for each listed record?
1. COc1cc(C(O)c2nc3ccccc3s2)cc(OC)c1OC (stereo not drawn)
2. Cn1c(=O)c2c(nc(N3CCCCC3)n2C)n(C)c1=O
3. c1ccc2c(c1)[nH]c1c3ccccc3sc21

[-15.16, 4.85, -1.18]

###

system: Klebsiella pneumoniae; details: Concentration 20 uM; ASSAY_TEST Inhibition of Bacterial Growth; detection method Absorption (OD600); MEDIA CAMHB; plate type 384well; NBS; CORNING #3640; time 18 hr
Description: Antibacterial activity against Klebsiella pneumoniae MDR ATCC 70063 (CO-ADD:GN_003); MIC in CAMBH media using NBS plates, by OD(600)
Measured potencies and affinities stand elsewhere.
Strictly below 9% in Inhibition: yes (1). Otherwise: no (0).

>  <compound>
Nc1ccc(C(=O)Oc2ccc([N+](=O)[O-])cc2)cc1

>  <assayed-target>
Klebsiella pneumoniae

>  <classification>
no (0)

$$$$
>  <compound>
O=C(COc1cc(Cl)c(Cl)cc1Cl)Nc1ccc([N+](=O)[O-])cc1Cl

>  <assayed-target>
Klebsiella pneumoniae

>  <classification>
no (0)

$$$$
>  <compound>
Nc1ccccc1-c1nc2cnccc2[nH]1

>  <assayed-target>
Klebsiella pneumoniae

>  <classification>
yes (1)

$$$$
>  <compound>
N=C(NOC(=O)c1ccccc1)C(Cc1ccccc1)C(=O)NOC(=O)c1ccccc1 (configuration not stated)

>  <assayed-target>
Klebsiella pneumoniae

>  <classification>
no (0)

$$$$
>  <compound>
N#C/C(=C\c1c[nH]c2ccccc12)C(N)=O

>  <assayed-target>
Klebsiella pneumoniae

>  <classification>
no (0)

$$$$

Please look at the following compound next.
Is Inhibition strictly under 9% for the entry COc1ccc2[nH]c(-c3ccccc3)cc2c1 ?
no (0)

###

I'd appreciate it if you could supply Inhibition values for the items below.
tested on: Acinetobacter baumannii; test: Antibacterial activity against Acinetobacter baumannii ATCC 19606 (CO-ADD:GN_034); MIC in CAMBH media using NBS plates, by Resazurin F(560/590); format: functional; conditions: Concentration 20 uM, ASSAY_TEST Inhibition of Bacterial Growth, detection method Resazurin, Fluorescence (ex560/em590), MEDIA CAMHB, plate type 384well, CORNING #3640, time 18 hr
Numbers only, in %.

Recorded Inhibition, per entry:
>  <compound>
COc1ccccc1NC(=O)c1cc2ccccc2cc1O

>  <Inhibition / %>
5.68

$$$$
>  <compound>
Oc1nc2[nH]c(Cl)nc(Cl)c-2n1

>  <Inhibition / %>
-10.58

$$$$
>  <compound>
O=C(O)/C=C\C(=O)Nc1nccs1

>  <Inhibition / %>
-13.11

$$$$
>  <compound>
C[C@]12CC[C@@H]3c4ccc(OCC(=O)O)cc4CC[C@H]3[C@@H]1CCC2=O

>  <Inhibition / %>
-16.81

$$$$
>  <compound>
CCNc1nc(NC(C)C)nc(-c2ccncc2)n1

>  <Inhibition / %>
-1.34

$$$$

Would you be so kind as to report Inhibition for each listed record?
1. C=CCNc1ncnc2sc(SC)nc12
2. Cn1cnc2ncnn2c1=S
3. O=C(Nc1ccc2ncccc2c1)Nc1ccc2ncccc2c1

14.45
-8.2
-26.89

Would you be so kind as to report Inhibition for each listed record?
1. Cn1ncc2c(Nc3ccccc3Cl)nc(Nc3ccccc3Cl)nc21
2. Cc1[nH]c(=O)n(C(C)C)c(=O)c1Br
3. Oc1cccc2cnccc12
4. CC(C)(C)C1=NN=C2c3ccccc3C(=O)C21 (configuration not stated)
5. O=C(O)c1cncc(Br)c1
6. CCCn1cnc2c(Sc3c([N+](=O)[O-])ncn3C)nc(N)nc21
7. c1ccc(-c2ccc3c(c2)NCCN3)cc1

[-3.35, -11.08, 3.26, 3.03, -13.95, -3.75, -10.39]

Would you be so kind as to report Inhibition for each listed record?
1. O/N=C(/c1ccccc1)c1ccc2c3c(cccc13)CC2
2. O=C(NC(=S)Nc1ccccn1)c1ccccc1
3. c1coc(CNc2[nH]cnc3nncc2-3)c1
4. O=C(O)c1ccc(O)c(O)c1 [PROTOCATECHUIC ACID]
5. COc1cc2c(O)cc(C(=O)O)c(-c3cc(OC)c(OC)c(OC)c3)c2cc1OC
6. Nc1ccc(/N=N/c2ccc(O)cc2)c(N)n1
7. CCC(C)NC(=O)c1cccc(C)c1 (configuration not stated)

[-12.52, -16.09, -12.11, -8.73, -7.99, -10.7, -10.03]

Would you be so kind as to report Inhibition for each listed record?
1. Cc1nc2ccnn2c(O)c1CCc1ccccc1
2. CCOc1ccc(NC(=O)Nc2cc(C(C)C)c(O)cc2C)cc1
3. CCCCCn1cnc2c(S)nc(N)nc21
4. COc1cc(NC(=O)CCl)ccc(=O)c1
5. CCCCNc1cc(Cl)nc(N)n1

-8.36
-0.68
-14.99
6.09
-9.43

###

tested on: Staphylococcus aureus; experiment: Antibacterial activity against Staphylococcus aureus MRSA ATCC 43300 (CO-ADD:GP_020); MIC in CAMBH media using NBS plates, by Resazurin F(560/590); type: functional; conditions: Concentration 20 uM, ASSAY_TEST Inhibition of Bacterial Growth, detection method Resazurin, Fluorescence (ex560/em590), MEDIA CAMHB, plate type 384well, CORNING #3640, time 18 hr
I'd appreciate it if you could supply Inhibition values for the items below.
One number for each entry, in %.

Would you be so kind as to report Inhibition for each listed record?
1. CCOC(=O)C1(C#N)C(=O)CS/C1=N/c1ccccc1Cl (stereo unspecified)
2. Cc1nc2ccnn2c(O)c1CCc1ccccc1
3. CCNc1ccccc1C(=O)O
4. O=C(Nc1cccc([N+](=O)[O-])c1)c1cccc(C(=O)Nc2cccc([N+](=O)[O-])c2)c1
5. NC(=O)c1ncn2c(=O)n(CCCl)nnc12 [MITOZOLOMIDE]

[19.69, 8.7, 19.64, -2.9, -4.1]

Would you be so kind as to report Inhibition for each listed record?
1. N#CC1=CC2CN(Cc3ccccc3)C1C1C(=O)N(c3ccccc3)C(=O)C21 (stereo unspecified)
2. C=C(C)CN1C(=O)C(C)S/C1=N/N=C1/SCC(=O)N1C (stereo unspecified)

1. -0.51
2. 12.61

Would you be so kind as to report Inhibition for each listed record?
1. CN(C)c1ccc(/C=C(\C#N)C(=O)c2ccccc2)cc1
2. COc1ccc2c(c1)CCN1C2CCN2C(=O)CCC21 (stereo unspecified)
3. Cc1ccc(NC(=O)N2CCCCC2)cc1NC(=O)N1CCCCC1
4. NC(CSC1(c2cccc3ccccc23)c2ccccc2-c2ccccc21)C(=O)O (stereo unspecified)

3.86
-11.91
-1.56
9.31

###

system: Staphylococcus aureus; test: Antibacterial activity against Staphylococcus aureus MRSA ATCC 43300 (CO-ADD:GP_020); MIC in CAMBH media using NBS plates, by Resazurin F(560/590); type: functional; details: Concentration 20 uM, ASSAY_TEST Inhibition of Bacterial Growth, detection method Resazurin, Fluorescence (ex560/em590), MEDIA CAMHB, plate type 384well, CORNING #3640, time 18 hr
attribute-measured: Inhibition (%)
Give bare numbers, in %.

Recorded Inhibition, per entry:
>  <molecule>
CC(=O)Nc1ccc(Cc2nc3c(=O)n(C)c(=O)n(C)c3[nH]2)cc1

>  <attribute-measured>
Inhibition

>  <value-units>
%

>  <measured-result>
10.98

$$$$
>  <molecule>
C=CCNC(S)=Nc1c(N)n(C)c(=O)n(C)c1=O

>  <attribute-measured>
Inhibition

>  <value-units>
%

>  <measured-result>
11.89

$$$$
>  <molecule>
COc1ccc(N/C=C2\C(=O)CCc3c2oc2cc(Cl)c(O)c(Cl)c32)cc1

>  <attribute-measured>
Inhibition

>  <value-units>
%

>  <measured-result>
7.05

$$$$
>  <molecule>
Cc1cccc(N2CCN(CC(O)COc3ccccc3Cl)CC2)c1 (stereo not drawn)

>  <attribute-measured>
Inhibition

>  <value-units>
%

>  <measured-result>
6.25

$$$$

Would you be so kind as to report Inhibition for each listed record?
1. CCn1c(=O)n(C)c2c(=O)n(C)c(=O)n(C)c21
2. CN1C=C/C(=C/[N+](=O)[O-])N(C)C1=O
3. COc1ccc([N+](=O)[O-])cc1NS(=O)(=O)c1ccc(C)cc1
4. CC(=O)NC1=C/C(=C\[N+](=O)[O-])C=C1O

[-2, 9.11, 7.11, -1.13]

Would you be so kind as to report Inhibition for each listed record?
1. O=c1[nH]nc(-c2cc(-c3ccccc3)nc3ccccc23)o1
2. c1ccc2c(c1)Nc1ccncc1S2
3. O=C(Nc1csnn1)c1csnn1
4. Cc1nc(N)nc(Nc2ccc(C#N)cc2)c1Br
5. Cn1ncc2c(Sc3ccc(Cl)cc3)ncnc21
6. Oc1cc(-c2ccc(Cl)cc2)nc2ccccc12

7.26
6.69
-7.63
13.25
-1.32
0.37

Would you be so kind as to report Inhibition for each listed record?
1. Cn1c(=O)c2nc(SCc3ccccn3)[nH]c2n(C)c1=S
2. Cc1nn(-c2ccccc2)nc1C(=O)Nc1ccc2[nH]ncc2c1
3. COc1cc2c(O)cc(C(=O)O)c(-c3cc(OC)c(OC)c(OC)c3)c2cc1OC
4. CN(C)S(=O)(=O)Nc1cccc(Br)c1
5. CC1(C)OC2C(CO)OC(n3cnc4c(S)ncnc43)C2O1 (stereo not drawn)
6. c1ccc(-c2nnc(-c3ccccc3)nn2)cc1
7. CN1CN(C)C(c2ccncc2)=C1c1ccncc1

1. 8.4
2. 18.91
3. 5.82
4. 1.46
5. 1.89
6. 8.93
7. 5.44

Would you be so kind as to report Inhibition for each listed record?
1. C=CCN(CC=C)C(=O)Nc1cc(OC)ccc1OC
2. CC(=O)c1cc(O)c2ccccc2c1O
3. Nc1ccc(C(=O)Nc2ccc(NC(=O)c3ccco3)c(O)c2)cc1
4. CCC(C)Oc1nc2c(c(=O)n(C)c(=O)n2C)n1C (stereo not drawn)
5. OC(c1ccccc1)(c1ccccc1)c1nccn1-c1ccccc1

1: -0.3; 2: 4.01; 3: 1; 4: -1.77; 5: 0.11

Cited source: ChEMBL document CHEMBL4296182
